# MEASUREMENT DESCRIPTION: Stability assay in 25% TIDE 2X detergent with DTPA (residual Abz-AGLA-Nba protease activity)
# Format: physicochemical
# TEST PARAMETERS: 60 min at 32°C; variant residual AGLA activity divided by wild-type residual activity
// reported PI (relative stability), 25% TIDE 2X with DTPA per item
MEASUREMENT NAME: PI (relative stability), 25% TIDE 2X with DTPA

MOLECULE: Y151E: single-substitution thermolysin variant (SEQ ID NO:3 numbering) (protein, listed as Geobacillus caldoproteolyticus) ITGTSTVGVGRGVLGDQKNINTTYSTYYYLQDNTRGNGIFTYDAKYRTTLPGSLWADADNQFFASYDAPAVDAHYYAGVTYDYYKNVHNRLSYDGNNAAIRSSVHYSQGYNNAFWNGSQMVYGDGDGQTFIPLSGGIDVVAHELTHAVTDETAGLIYQNESGAINEAISDIFGTLVEFYANKNPDWEIGEDVYTPGISGDSLRSMSDPAKYGDPDHYSKRYTGTQDNGGVHINSGIINKAAYLISQGGTHYGVSVVGIGRDKLGKIFYRALTQYLTPTSNFSQLRAAAVQSATDLYGSTSQEVASVKQAFDAVGVK
QUANTITATIVE READOUT: 1.10
//
MOLECULE: Q128Y: single-substitution thermolysin variant (SEQ ID NO:3 numbering) (protein, listed as Geobacillus caldoproteolyticus) ITGTSTVGVGRGVLGDQKNINTTYSTYYYLQDNTRGNGIFTYDAKYRTTLPGSLWADADNQFFASYDAPAVDAHYYAGVTYDYYKNVHNRLSYDGNNAAIRSSVHYSQGYNNAFWNGSQMVYGDGDGYTFIPLSGGIDVVAHELTHAVTDYTAGLIYQNESGAINEAISDIFGTLVEFYANKNPDWEIGEDVYTPGISGDSLRSMSDPAKYGDPDHYSKRYTGTQDNGGVHINSGIINKAAYLISQGGTHYGVSVVGIGRDKLGKIFYRALTQYLTPTSNFSQLRAAAVQSATDLYGSTSQEVASVKQAFDAVGVK
QUANTITATIVE READOUT: 1.09
